Every entry's value here was drawn from the kinase profiling compilation of Christmann-Franck et al. (2016).

Experimental System: ZAP70 (human) (UniProt P43403)
Sequence (P43403 whole entry, looked up): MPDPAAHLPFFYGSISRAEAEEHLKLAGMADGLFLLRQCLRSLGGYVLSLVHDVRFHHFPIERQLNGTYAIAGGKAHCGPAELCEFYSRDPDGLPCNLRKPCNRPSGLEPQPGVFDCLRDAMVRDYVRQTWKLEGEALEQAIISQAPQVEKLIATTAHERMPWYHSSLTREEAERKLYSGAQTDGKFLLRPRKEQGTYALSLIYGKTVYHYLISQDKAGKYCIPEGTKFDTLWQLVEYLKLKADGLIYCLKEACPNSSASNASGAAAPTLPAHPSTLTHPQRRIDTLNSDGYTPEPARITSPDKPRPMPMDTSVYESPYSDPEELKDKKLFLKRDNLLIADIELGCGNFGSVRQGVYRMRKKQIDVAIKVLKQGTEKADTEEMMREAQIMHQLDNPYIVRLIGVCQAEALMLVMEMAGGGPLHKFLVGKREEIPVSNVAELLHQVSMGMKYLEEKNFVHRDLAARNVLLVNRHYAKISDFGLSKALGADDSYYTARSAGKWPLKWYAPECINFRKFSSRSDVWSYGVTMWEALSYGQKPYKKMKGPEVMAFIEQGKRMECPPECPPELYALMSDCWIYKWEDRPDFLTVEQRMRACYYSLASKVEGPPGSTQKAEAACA
Protocol Description: KINOMEscan competition binding
Details: compound 10.0 µM
Recorded kinase still bound, per cent of control by entry
Just the number in %, nothing appended.

Worked examples, 3 molecules total:
O=C1NC(=O)/C(=C/c2c[nH]c(=O)c(-c3ccc(N4CCNCC4)nc3)c2)S1    61
N=C1NC(=O)/C(=C/c2ccc(-c3cccc4cc[nH]c34)o2)S1    8.2
COc1cc(N2CCN(C)CC2)ccc1Nc1ncc2c(n1)N(C)c1sccc1C(=O)N2C    74

Just so you know, measured kinase still bound, per cent of control for CN1C(=O)c2ccccc2N(C)c2nc(NS(=O)(=O)c3ccc(N)cc3)ncc21 came out at 100

Just so you know, measured kinase still bound, per cent of control for N=C1NC(=O)/C(=C/c2ccc(-c3ccc(C(N)=O)cc3O)o2)S1 came out at 25

====

Experimental System: MAPKAPK5 (human)
Protocol Description: KINOMEscan competition binding
Details: compound 10.0 µM
Recorded kinase still bound, per cent of control by entry
Just the number in %, nothing appended.

Worked examples, 8 molecules total:
COc1cc(N2CCN(C)CC2)ccc1Nc1ncc2c(n1)N(C)c1ccccc1N(C)C2=O    100
O=C1NC(=O)/C(=C/c2c[nH]c(=O)c(-c3ccc(N4CCNCC4)nc3)c2)S1    84
N=C1NC(=O)/C(=C/c2ccc(-c3ccc4c(C(=O)Nc5ccc(N6CCNCC6)cc5)cccc4c3)o2)S1    12
COc1cc(N2CCN(C)CC2)ccc1Nc1ncc2c(n1)Nc1ccccc1NC2=O    100
CN1C(=O)c2ccccc2N(C)c2nc(Nc3ccc(N4CCC(O)CC4)cc3)ncc21    92
N=C1NC(=O)/C(=C/c2ccc(-c3ccc(C(=O)Nc4ccc(N5CCNCC5)cc4)cc3O)o2)S1    32
CN1C(=O)c2ccccc2N(C)c2nc(NS(=O)(=O)c3ccc(N)cc3)ncc21    100
N=C1NC(=O)/C(=C/c2ccc(-c3cncc4ccccc34)o2)S1    12

Just so you know, measured kinase still bound, per cent of control for COc1cc(N2CCC(O)CC2)ccc1Nc1ncc2c(n1)N1CCc3cccc(c31)C(=O)N2C came out at 95

Just so you know, measured kinase still bound, per cent of control for COc1cc(N2CCN(C)CC2)ccc1Nc1ncc2c(n1)N(C)c1sccc1C(=O)N2C came out at 69

Just so you know, measured kinase still bound, per cent of control for CN1CCN(c2ccc(C(=O)Nc3ncc4c(n3)N(C)c3ccccc3C(=O)N4C)cc2)CC1 came out at 63

====

Experimental System: CAMK2D (human)
Protocol Description: KINOMEscan competition binding
Details: compound 10.0 µM
Rule: kinase still bound, per cent of control below 30% gives rule met, anything at or above gives rule not met.

Inquiry: Is 30% strictly greater than the molecule's reported kinase still bound, per cent of control? molecule: O=C1NC(=S)S/C1=C\c1ccc(-c2cncc3ccccc23)o1
Reply text: rule not met

====

Experimental System: LIMK2 (human) (UniProt P53671)
Sequence (P53671 whole entry, looked up): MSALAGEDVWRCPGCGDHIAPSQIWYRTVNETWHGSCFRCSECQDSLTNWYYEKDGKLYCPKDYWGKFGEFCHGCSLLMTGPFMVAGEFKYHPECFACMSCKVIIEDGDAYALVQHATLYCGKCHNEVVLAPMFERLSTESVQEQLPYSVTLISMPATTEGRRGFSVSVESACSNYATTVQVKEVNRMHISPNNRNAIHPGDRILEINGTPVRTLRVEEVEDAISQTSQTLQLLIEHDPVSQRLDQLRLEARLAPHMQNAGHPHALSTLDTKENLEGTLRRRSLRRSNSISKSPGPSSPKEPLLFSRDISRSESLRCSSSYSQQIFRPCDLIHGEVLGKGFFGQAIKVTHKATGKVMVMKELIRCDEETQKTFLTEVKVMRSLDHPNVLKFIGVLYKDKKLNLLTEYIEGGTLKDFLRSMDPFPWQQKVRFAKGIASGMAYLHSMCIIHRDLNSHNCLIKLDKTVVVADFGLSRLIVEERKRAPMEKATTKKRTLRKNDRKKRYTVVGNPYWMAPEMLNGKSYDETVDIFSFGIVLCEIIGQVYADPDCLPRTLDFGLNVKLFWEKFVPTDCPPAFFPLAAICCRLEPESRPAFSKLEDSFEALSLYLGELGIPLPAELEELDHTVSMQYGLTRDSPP
Protocol Description: KINOMEscan competition binding
Details: compound 10.0 µM
Rule: kinase still bound, per cent of control below 90% gives Met, anything at or above gives Not met.

The examples below pair each entry with its known result.
O=C1NC(=O)/C(=C/c2c[nH]c(=O)c(-c3ccc(N4CCNCC4)nc3)c2)S1    Met
COc1cc(N2CCN(C)CC2)ccc1Nc1ncc2c(n1)N(C)c1sccc1C(=O)N2C    Met
COc1cc(N2CCN(C)CC2)ccc1Nc1ncc2c(n1)Nc1ccccc1NC2=O    Not met
COc1cc(N2CCN(C)CC2)ccc1Nc1ncc2c(n1)N(C)c1ccccc1N(C)C2=O    Met
CN1CCN(c2ccc(C(=O)Nc3ncc4c(n3)N(C)c3ccccc3C(=O)N4C)cc2)CC1    Not met

Inquiry: Is 90% strictly greater than the molecule's reported kinase still bound, per cent of control? molecule: COc1cc(N2CCC(O)CC2)ccc1Nc1ncc2c(n1)N1CCc3cccc(c31)C(=O)N2C
Reply text: Not met

====

Experimental System: MAP3K3 (human)
Protocol Description: KINOMEscan competition binding
Details: compound 10.0 µM
Recorded kinase still bound, per cent of control by entry
Just the number in %, nothing appended.

Worked examples, 6 compounds total:
O=C1NC(=O)/C(=C/c2c[nH]c(=O)c(-c3ccc(N4CCNCC4)nc3)c2)S1    9.9
COc1cc(N2CCN(C)CC2)ccc1Nc1ncc2c(n1)N(C)c1sccc1C(=O)N2C    72
CN1C(=O)c2ccccc2N(C)c2nc(NS(=O)(=O)c3ccc(N)cc3)ncc21    100
CN1CCN(c2ccc(C(=O)Nc3ncc4c(n3)N(C)c3ccccc3C(=O)N4C)cc2)CC1    100
COc1cc(N2CCC(O)CC2)ccc1Nc1ncc2c(n1)N1CCc3cccc(c31)C(=O)N2C    94
CN1C(=O)c2ccccc2N(C)c2nc(Nc3ccc(N4CCC(O)CC4)cc3)ncc21    0.35

Just so you know, measured kinase still bound, per cent of control for CN1C(=O)c2ccccc2N(C)c2nc(Nc3ccc(N4CCC(O)CC4)cn3)ncc21 came out at 2.2

Just so you know, measured kinase still bound, per cent of control for COc1cc(N2CCN(C)CC2)ccc1Nc1ncc2c(n1)N(C)c1ccccc1N(C)C2=O came out at 93

Just so you know, measured kinase still bound, per cent of control for COc1cc(N2CCN(C)CC2)ccc1Nc1ncc2c(n1)Nc1ccccc1NC2=O came out at 86

====

Experimental System: CAMK1 (human) (UniProt Q14012)
Sequence (Q14012 whole entry, looked up): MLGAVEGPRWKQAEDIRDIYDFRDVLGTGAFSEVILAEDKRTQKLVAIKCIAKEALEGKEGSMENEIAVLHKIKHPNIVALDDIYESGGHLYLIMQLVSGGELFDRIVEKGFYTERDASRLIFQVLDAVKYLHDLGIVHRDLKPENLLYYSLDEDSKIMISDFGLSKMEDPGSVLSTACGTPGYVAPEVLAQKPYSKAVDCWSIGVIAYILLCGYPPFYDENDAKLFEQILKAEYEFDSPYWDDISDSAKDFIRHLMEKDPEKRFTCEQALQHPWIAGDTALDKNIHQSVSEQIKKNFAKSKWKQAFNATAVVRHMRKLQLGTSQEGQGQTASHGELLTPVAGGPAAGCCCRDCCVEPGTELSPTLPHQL
Protocol Description: KINOMEscan competition binding
Details: compound 10.0 µM
Recorded Metric: kinase still bound, per cent of control (%)
Just the number in %, nothing appended.

Worked examples, 4 compounds total:
Cc1cn(-c2cc(NC(=O)c3cccc4cc(-c5ccc(/C=C6\SC(=N)NC6=O)o5)ccc34)cc(C(F)(F)F)c2)cn1    20
O=C1NC(=S)S/C1=C\c1ccc(-c2cncc3ccccc23)o1    27
COc1cc(N2CCN(C)CC2)ccc1Nc1ncc2c(n1)N(C)c1sccc1C(=O)N2C    71
CN1C(=O)c2ccccc2N(C)c2nc(Nc3ccc(N4CCC(O)CC4)cc3)ncc21    100

--- query ---
Just so you know, measured kinase still bound, per cent of control for COc1cc(N2CCN(C)CC2)ccc1Nc1ncc2c(n1)Nc1ccccc1NC2=O came out at 100

====

Recorded kinase still bound, per cent of control by entry
Experimental System: UniProt:P06239
Sequence (P06239 whole entry, looked up): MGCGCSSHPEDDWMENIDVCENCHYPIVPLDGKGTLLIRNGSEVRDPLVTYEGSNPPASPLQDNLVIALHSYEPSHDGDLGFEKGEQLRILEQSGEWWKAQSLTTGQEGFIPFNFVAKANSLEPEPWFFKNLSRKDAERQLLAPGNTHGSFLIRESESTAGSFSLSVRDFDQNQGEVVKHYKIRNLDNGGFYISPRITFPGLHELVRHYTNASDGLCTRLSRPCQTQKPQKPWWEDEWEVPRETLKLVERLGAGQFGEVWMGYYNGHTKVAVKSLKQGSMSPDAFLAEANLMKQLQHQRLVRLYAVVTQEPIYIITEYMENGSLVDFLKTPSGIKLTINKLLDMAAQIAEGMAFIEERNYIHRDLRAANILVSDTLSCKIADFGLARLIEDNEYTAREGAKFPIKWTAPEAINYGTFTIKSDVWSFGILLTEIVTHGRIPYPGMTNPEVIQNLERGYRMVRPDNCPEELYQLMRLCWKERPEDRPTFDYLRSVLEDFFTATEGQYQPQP
Protocol Description: KINOMEscan competition binding
Details: compound 10.0 µM
Just the number in %, nothing appended.

CN1C(=O)c2ccccc2N(C)c2nc(Nc3ccc(N4CCC(O)CC4)cc3)ncc21    50

Just so you know, measured kinase still bound, per cent of control for O=C1NC(=O)/C(=C/c2c[nH]c(=O)c(-c3ccc(N4CCNCC4)nc3)c2)S1 came out at 100

Just so you know, measured kinase still bound, per cent of control for CN1C(=O)[C@H]2CCC[C@H]2N(C2CCCC2)c2nc(Nc3ccc4ncccc4c3)ncc21 came out at 19

Just so you know, measured kinase still bound, per cent of control for COc1cc(N2CCN(C)CC2)ccc1Nc1ncc2c(n1)Nc1ccccc1NC2=O came out at 28

Just so you know, measured kinase still bound, per cent of control for COc1cc(N2CCN(C)CC2)ccc1Nc1ncc2c(n1)N(C)c1ccccc1N(C)C2=O came out at 100

Just so you know, measured kinase still bound, per cent of control for COc1cc(N2CCC(O)CC2)ccc1Nc1ncc2c(n1)N1CCc3cccc(c31)C(=O)N2C came out at 100

Just so you know, measured kinase still bound, per cent of control for CN1C(=O)c2ccccc2N(C)c2nc(NS(=O)(=O)c3ccc(N)cc3)ncc21 came out at 100

Just so you know, measured kinase still bound, per cent of control for COc1cc(N2CCN(C)CC2)ccc1Nc1ncc2c(n1)N(c1ccccc1)CCC(=O)N2 came out at 25

Just so you know, measured kinase still bound, per cent of control for COc1cc(N2CCN(C)CC2)ccc1Nc1ncc2c(n1)N(C)c1sccc1C(=O)N2C came out at 100

Just so you know, measured kinase still bound, per cent of control for CN1CCN(c2ccc(C(=O)Nc3ncc4c(n3)N(C)c3ccccc3C(=O)N4C)cc2)CC1 came out at 100

====

Experimental System: MAP3K5 (human) (UniProt Q99683)
Sequence (Q99683 whole entry, looked up): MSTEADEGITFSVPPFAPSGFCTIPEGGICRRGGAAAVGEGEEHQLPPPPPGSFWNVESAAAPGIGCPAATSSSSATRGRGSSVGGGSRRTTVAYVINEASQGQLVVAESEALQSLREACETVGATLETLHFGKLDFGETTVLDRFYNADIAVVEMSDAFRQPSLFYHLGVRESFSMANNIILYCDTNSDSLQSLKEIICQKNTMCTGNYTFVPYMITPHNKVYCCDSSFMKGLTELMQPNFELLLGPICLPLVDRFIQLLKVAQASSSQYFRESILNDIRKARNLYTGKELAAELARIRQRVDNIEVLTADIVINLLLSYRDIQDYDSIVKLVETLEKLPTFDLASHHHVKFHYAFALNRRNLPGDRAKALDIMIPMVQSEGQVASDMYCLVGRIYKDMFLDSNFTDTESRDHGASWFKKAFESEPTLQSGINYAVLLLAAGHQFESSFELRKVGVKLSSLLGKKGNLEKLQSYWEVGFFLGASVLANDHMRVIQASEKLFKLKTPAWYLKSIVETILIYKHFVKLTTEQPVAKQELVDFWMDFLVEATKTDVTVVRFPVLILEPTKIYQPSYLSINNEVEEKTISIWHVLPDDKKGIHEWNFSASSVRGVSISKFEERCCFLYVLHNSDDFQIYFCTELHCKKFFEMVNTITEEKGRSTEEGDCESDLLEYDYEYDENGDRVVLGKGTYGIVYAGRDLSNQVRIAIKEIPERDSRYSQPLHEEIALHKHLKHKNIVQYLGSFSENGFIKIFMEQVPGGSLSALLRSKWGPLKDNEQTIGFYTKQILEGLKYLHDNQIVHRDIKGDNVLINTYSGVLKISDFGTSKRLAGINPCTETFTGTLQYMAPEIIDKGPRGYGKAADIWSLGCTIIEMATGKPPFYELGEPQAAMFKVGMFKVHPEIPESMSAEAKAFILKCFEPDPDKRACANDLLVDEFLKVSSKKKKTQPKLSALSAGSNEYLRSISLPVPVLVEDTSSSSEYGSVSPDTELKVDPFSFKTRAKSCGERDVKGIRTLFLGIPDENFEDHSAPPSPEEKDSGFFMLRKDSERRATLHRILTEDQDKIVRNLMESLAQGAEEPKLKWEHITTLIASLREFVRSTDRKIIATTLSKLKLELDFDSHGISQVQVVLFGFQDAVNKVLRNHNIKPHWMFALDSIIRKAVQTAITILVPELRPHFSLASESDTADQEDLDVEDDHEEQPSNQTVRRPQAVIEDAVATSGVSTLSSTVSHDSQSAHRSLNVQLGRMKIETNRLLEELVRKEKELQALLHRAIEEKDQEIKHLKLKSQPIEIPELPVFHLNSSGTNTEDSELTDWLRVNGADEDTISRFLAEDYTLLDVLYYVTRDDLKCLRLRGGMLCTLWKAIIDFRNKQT
Protocol Description: KINOMEscan competition binding
Details: compound 10.0 µM
Recorded kinase still bound, per cent of control by entry
Mention the unit after the number when you answer.

Worked examples, 2 compounds total:
COc1cc(N2CCN(C)CC2)ccc1Nc1ncc2c(n1)Nc1ccccc1NC2=O    100%
COc1cc(N2CCC(O)CC2)ccc1Nc1ncc2c(n1)N1CCc3cccc(c31)C(=O)N2C    100%

Just so you know, measured kinase still bound, per cent of control for N=C1NC(=O)/C(=C/c2ccc(-c3ccc(F)cc3O)o2)S1 came out at 14%

Just so you know, measured kinase still bound, per cent of control for CS(=O)(=O)Nc1ccc(-c2cc(/C=C3\SC(=N)NC3=O)c[nH]c2=O)cc1 came out at 4.6%
